Molecular target: 5-HT1b (Homo sapiens, UniProt P28222)
Sequence (P28222 whole entry): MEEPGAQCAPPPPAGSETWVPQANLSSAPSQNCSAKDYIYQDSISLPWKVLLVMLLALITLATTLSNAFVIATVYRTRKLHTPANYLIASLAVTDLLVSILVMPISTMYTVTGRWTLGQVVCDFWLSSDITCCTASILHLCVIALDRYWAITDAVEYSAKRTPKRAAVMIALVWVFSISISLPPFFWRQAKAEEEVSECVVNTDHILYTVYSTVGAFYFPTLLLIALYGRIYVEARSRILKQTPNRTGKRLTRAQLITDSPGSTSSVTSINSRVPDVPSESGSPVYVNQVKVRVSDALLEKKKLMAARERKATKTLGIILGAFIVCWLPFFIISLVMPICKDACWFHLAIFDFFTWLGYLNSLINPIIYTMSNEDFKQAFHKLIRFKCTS
Test: Radioligand displacement, 5-HT1b
Assay type: binding
Settings: [3H] radioligand GR125743; Human, Cloned; read-out: Ki
METRIC: Ki

> print(dat)
                            compound.string  obs.value
1  CC(C)[C@@H](CN1CC[C@@](C)(c2cccc(O)c2)[C@@H](C)C1)NC(=O)[C@H]1Cc2ccc(O)cc2CN1    ≥ 10 µM

* * *

Biological target: 5-HT1a (Homo sapiens, UniProt P08908)
Sequence (P08908 whole entry): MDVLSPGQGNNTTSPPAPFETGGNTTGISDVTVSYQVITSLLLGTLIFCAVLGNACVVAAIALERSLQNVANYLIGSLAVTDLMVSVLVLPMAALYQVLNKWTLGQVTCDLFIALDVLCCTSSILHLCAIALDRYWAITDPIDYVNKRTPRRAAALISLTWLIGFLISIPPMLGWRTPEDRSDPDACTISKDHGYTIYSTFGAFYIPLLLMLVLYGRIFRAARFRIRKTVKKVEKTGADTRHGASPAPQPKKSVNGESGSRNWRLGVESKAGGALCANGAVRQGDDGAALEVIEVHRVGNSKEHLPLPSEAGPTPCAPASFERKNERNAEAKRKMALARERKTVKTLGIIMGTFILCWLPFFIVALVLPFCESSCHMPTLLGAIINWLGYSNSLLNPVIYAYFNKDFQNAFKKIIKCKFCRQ
Test: Radioligand displacement, 5-HT1a
Format: binding
Conditions: [3H] radioligand 8-OH-DPAT; Human, Cloned

COMPOUND	Ki
Oc1ccc2c3c1O[C@H]1c4[nH]c5c(c4C[C@@]4(O)[C@@H](C2)N(CC2CC2)CC[C@]314)C[C@@]1(O)[C@H]2Cc3ccc(O)c4c3[C@@]1(CCN2CC1CC1)[C@H]5O4 [nor-BNI, Nor-binaltorphimine]	1.11 µM
CC(C)[C@@H](CN1CC[C@@](C)(c2cccc(O)c2)[C@@H](C)C1)NC(=O)[C@H]1Cc2ccc(O)cc2CN1 [JDTic]	≥ 10 µM
N=C(N)Nc1ccc2[nH]c3c(c2c1)C[C@@]1(O)[C@H]2Cc4ccc(O)c5c4[C@@]1(CCN2CC1CC1)[C@H]3O5 [GNTI, 5′-guanidinonaltrindole]	≥ 10 µM

* * *

Quick list: Ki per entry.
Target: M3 (Homo sapiens, UniProt P20309)
Sequence (P20309 whole entry): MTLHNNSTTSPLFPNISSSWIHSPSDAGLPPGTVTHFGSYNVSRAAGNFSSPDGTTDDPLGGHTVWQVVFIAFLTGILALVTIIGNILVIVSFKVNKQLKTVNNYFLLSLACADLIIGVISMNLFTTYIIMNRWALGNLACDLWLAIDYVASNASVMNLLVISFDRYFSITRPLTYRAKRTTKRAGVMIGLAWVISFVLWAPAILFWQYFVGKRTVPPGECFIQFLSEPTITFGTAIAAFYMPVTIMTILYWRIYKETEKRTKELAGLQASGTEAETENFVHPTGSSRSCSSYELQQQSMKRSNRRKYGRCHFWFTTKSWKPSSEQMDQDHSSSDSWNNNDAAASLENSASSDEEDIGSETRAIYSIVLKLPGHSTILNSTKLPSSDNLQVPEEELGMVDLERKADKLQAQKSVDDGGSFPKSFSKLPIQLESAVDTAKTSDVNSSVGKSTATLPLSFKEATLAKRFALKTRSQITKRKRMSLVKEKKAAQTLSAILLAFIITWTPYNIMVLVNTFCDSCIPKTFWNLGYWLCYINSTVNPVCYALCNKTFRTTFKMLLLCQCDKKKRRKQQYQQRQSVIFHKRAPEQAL
Assay: Radioligand displacement, M3
Type: binding

COMPOUND_STRING	SYSTEM_NAME	Ki
N=C(N)Nc1ccc2[nH]c3c(c2c1)C[C@@]1(O)[C@H]2Cc4ccc(O)c5c4[C@@]1(CCN2CC1CC1)[C@H]3O5	M3 (Homo sapiens, UniProt P20309)	≥ 10 µM
Oc1ccc2c3c1O[C@H]1c4[nH]c5c(c4C[C@@]4(O)[C@@H](C2)N(CC2CC2)CC[C@]314)C[C@@]1(O)[C@H]2Cc3ccc(O)c4c3[C@@]1(CCN2CC1CC1)[C@H]5O4	M3 (Homo sapiens, UniProt P20309)	≥ 10 µM

* * *

Biological target: σ1 (Rattus norvegicus, UniProt Q9R0C9)
Sequence (Q9R0C9 whole entry): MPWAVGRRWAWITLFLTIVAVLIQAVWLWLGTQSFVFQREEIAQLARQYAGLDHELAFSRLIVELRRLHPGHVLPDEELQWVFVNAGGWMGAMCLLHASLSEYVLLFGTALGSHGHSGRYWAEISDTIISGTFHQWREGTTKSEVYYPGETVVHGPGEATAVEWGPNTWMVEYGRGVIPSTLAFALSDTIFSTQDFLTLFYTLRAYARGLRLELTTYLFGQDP
Assay: Radioligand displacement, σ1
Format: binding
Ki values by entry

COMPOUND_STRING	Ki
Oc1ccc2c3c1O[C@H]1c4[nH]c5c(c4C[C@@]4(O)[C@@H](C2)N(CC2CC2)CC[C@]314)C[C@@]1(O)[C@H]2Cc3ccc(O)c4c3[C@@]1(CCN2CC1CC1)[C@H]5O4	≥ 10 µM
N=C(N)Nc1ccc2[nH]c3c(c2c1)C[C@@]1(O)[C@H]2Cc4ccc(O)c5c4[C@@]1(CCN2CC1CC1)[C@H]3O5	≥ 10 µM

* * *

Target: β1 (Homo sapiens, UniProt P08588)
Sequence (P08588 whole entry): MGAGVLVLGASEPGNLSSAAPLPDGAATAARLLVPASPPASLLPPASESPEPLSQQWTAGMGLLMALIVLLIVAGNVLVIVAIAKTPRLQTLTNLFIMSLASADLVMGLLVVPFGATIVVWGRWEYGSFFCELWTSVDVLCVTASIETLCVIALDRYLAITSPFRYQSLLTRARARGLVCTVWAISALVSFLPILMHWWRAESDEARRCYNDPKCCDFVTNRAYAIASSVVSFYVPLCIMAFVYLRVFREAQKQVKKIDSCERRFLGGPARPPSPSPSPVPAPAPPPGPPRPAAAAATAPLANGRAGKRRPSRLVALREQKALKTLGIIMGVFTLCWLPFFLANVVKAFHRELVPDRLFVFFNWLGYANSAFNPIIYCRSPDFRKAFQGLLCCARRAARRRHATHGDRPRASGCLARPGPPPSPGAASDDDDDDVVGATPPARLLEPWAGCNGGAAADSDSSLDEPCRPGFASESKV
Experiment: Radioligand displacement, β1
Assay type: binding
METRIC: Ki

COMPOUND_STRING	OBS_VALUE
Oc1ccc2c3c1O[C@H]1c4[nH]c5c(c4C[C@@]4(O)[C@@H](C2)N(CC2CC2)CC[C@]314)C[C@@]1(O)[C@H]2Cc3ccc(O)c4c3[C@@]1(CCN2CC1CC1)[C@H]5O4	≥ 10 µM
N=C(N)Nc1ccc2[nH]c3c(c2c1)C[C@@]1(O)[C@H]2Cc4ccc(O)c5c4[C@@]1(CCN2CC1CC1)[C@H]3O5	≥ 10 µM
